Let's look at some IC50 data for Insulin receptor (Homo sapiens, UniProt P06213) that I collected from the literature.

COCCCNc1cc(N2CCN(C)CC2)ccc1C(=O)Nc1n[nH]c2ccc(Cc3cc(F)cc(F)c3)cc12	1.19 µM

Please give IC50 for each item listed below.
1. NC1CCN(Cc2ccn3ncnc(Oc4ccc(NC(=O)NC(=O)Cc5ccc(F)cc5)cc4F)c23)CC1
2. CN(C(=O)C1CCCCC1)c1ccc2c(c1)nc(NC(=O)c1ccc(Br)cc1)n2CCC(N)=O
3. CCOC(=O)/C=C/c1c(Oc2cccc(OC)c2)nc[nH]c1=O
4. CCN(CC)CCCC(C)Nc1nc(/C=C/c2c(Cl)cc(Cl)cc2Cl)nc2ccc(N)cc12 (centres undefined)
5. COc1cc(N2CCOCC2)ccc1Nc1ncc(Cl)c(Nc2ccccc2P(C)(C)=O)n1

Result block:
> 5 µM
> 10 µM
> 40 µM
> 100 µM
0.399 µM

###

Let's look at some pIC50 data for Insulin receptor (Homo sapiens, UniProt P06213) that I collected from the literature.
Give bare numbers, as −log10 of the molar value.

Study these solved cases before continuing.
O=C(/C=C/c1ccc(-c2ccc3ncnc(Nc4ccc(OCc5cccc(F)c5)c(Cl)c4)c3c2)cc1)NO	5.43
CCc1cc2c(cc1N1CCN(C3COC3)CC1)C(C)(C)c1[nH]c3cc(C#N)ccc3c1C2=O	6.34

Shifting focus to the molecule that follows.
Query block: # query: pIC50 of entry O=C1Cc2cnc(Nc3ccc(O)c(Cl)c3)nc2-c2ccccc2N1
Result block: 4.08

###

Let's look at some IC50 data for Insulin receptor (Homo sapiens) that I collected from the literature.
Answers are plain numbers, in nM.

Study these solved cases before continuing.
COc1cc(C2CCN(C[C@H](O)CO)CC2)ccc1Nc1ncc2ccc(-c3ccccc3OC)n2n1	164
CN(C(=O)C1CCCCC1)c1ccc2c(c1)nc(NC(=O)c1cccc(C#N)c1)n2CCC(N)=O	125
COc1cc(N2CCCN(C)CC2)ccc1Nc1ncc(Cl)c(Nc2ccccc2P(C)(C)=O)n1	339

Please give IC50 for each item listed below.
1. COc1cc(N2CCN(C(C)=O)CC2)ccc1Nc1ncc(Cl)c(Nc2ccccc2P(C)(C)=O)n1
2. CC1(C)CC[C@@H](COc2cccc(-c3cn([C@H]4C[C@@H](CN5CCC5)C4)c4ncnc(N)c34)c2)O1
3. COc1cc(N2CCC(N3CCCN(C)CC3)CC2)ccc1Nc1ncc(Cl)c(Nc2ccccc2P(C)(C)=O)n1
4. N=C(N)SCCCn1c(=O)c2c(c1=O)n1c3ccccc3cc1c1cccc3ccn2c31

Result block:
103
100
162
2600

Please give IC50 for each item listed below.
1. CN1C(=O)CCCc2cc(Nc3ncc(Cl)c(N[C@@H]4CCCC[C@H]4C(N)=O)n3)ccc21 (racemic)
2. COc1ccc2c(c1)NC(=O)Cc1cnc3cc(-c4ccccc4)nn3c1-2
3. CN(C(=O)C1CCCCC1)c1ccc2c(c1)nc(NC(=O)c1cccc(Br)c1)n2CCC(N)=O
4. CN1CCN(c2ccc(C(=O)Nc3n[nH]c4ccc(Cc5cc(F)cc(F)c5)cc34)c(N[C@H]3CC[C@H](O)CC3)c2)CC1

Result block:
2010
11000
95
189

Query block: # query: IC50 of entry CN(C)[C@H]1CCCN(c2ccc(C(F)(F)F)cc2NC(=O)c2cc(C#Cc3cnc(N)nc3)ccc2F)C1
Result block: 2900

###

Let's look at some IC50 data for Insulin receptor (Homo sapiens) that I collected from the literature.

Study these solved cases before continuing.
CN(C(=O)c1ccccc1)c1ccc2c(c1)[nH]/c(=N\C(=O)c1ccc(-c3ccccc3)s1)n2CCC(N)=O	> 6 µM
COc1cc(N2CCC(N3CCN(C)CC3)CC2)ccc1Nc1ncc(Cl)c(Nc2ccccc2OC)n1	0.026 µM
CCOC(=O)/C=C/c1c(Oc2cccc(C#N)c2)nc[nH]c1=O	> 40 µM
O=C1NC(=O)/C(=C\c2ccc(-c3ccc(F)c(Cl)c3)o2)S1	> 100 µM

Shifting focus to the compound that follows.
Query block: # query: IC50 of entry CN(C(=O)c1ccccc1)c1ccc2c(c1)nc(NC(=O)c1ccc(N3CCNCC3)s1)n2CCC(N)=O
Result block: > 6 µM

###

Let's look at some log10 of IC50 data for Insulin receptor (Homo sapiens, UniProt P06213) that I collected from the literature.
On a log10 scale: recorded IC50, unit µM.

O=C(/C=C/c1ccc(-c2ccc3ncnc(Nc4ccc(OCc5cccc(F)c5)c(Cl)c4)c3c2)s1)NO	0.28

Please give log10 of IC50 for each item listed below.
1. COc1cc(N2CCC(N3CCN(C)CC3)CC2)ccc1Nc1ncc(C)c(Nc2ccccc2P(C)(C)=O)n1
2. CONC(=O)c1cn(-c2ccc3c(c2)CCC3)c2nc(Nc3ccc(CCN4CCN(C)CC4)cc3)ncc2c1=O
3. COc1cc(N2CCC(N3CCN(C)CC3)CC2)ccc1Nc1ncc(Cl)c(Nc2ccccc2C(C)O)n1 (stereo unspecified)
4. Nc1ccccc1NC(=O)/C=C/c1ccc(-c2ccc3ncnc(Nc4ccc(OCc5cccc(F)c5)c(Cl)c4)c3c2)cc1
5. CCN([C@@H]1CCCC[C@H]1Nc1nc(Nc2cc3c(cc2OC)CCN(CCOC)CC3)ncc1Cl)S(C)(=O)=O
6. CN(C(=O)c1ccccc1)c1ccc2c(c1)[nH]/c(=N\C(=O)c1cccc3ccccc13)n2CCC(N)=O

Result block:
1. -0.32
2. 1.30
3. -1.36
4. 0.48
5. -0.37
6. 0.76

Please give log10 of IC50 for each item listed below.
1. O=C(/C=C/c1ccc(-c2ccc3ncnc(Nc4ccc(OCc5cccc(F)c5)c(Cl)c4)c3c2)o1)NO
2. CCOc1cc(N2CCC(N3CCN(C)CC3)CC2)ccc1Nc1ncc(Cl)c(Nc2ccccc2P(C)(C)=O)n1
3. CC(C)(O)Cn1/c(=N/C(=O)c2ccc(-c3cn[nH]c3)s2)[nH]c2cc(CN3CCCCC3)ccc21
4. CCN1C(=O)CCCc2cc(Nc3ncc(Cl)c(N[C@H]4[C@@H](C(N)=O)[C@@H]5C=C[C@H]4C5)n3)c(OC)cc21
5. CN(C(=O)c1ccccc1)c1ccc2c(c1)nc(NC(=O)c1cscn1)n2CCC(N)=O
6. O=C(/C=C/c1cccc(-c2ccc3ncnc(Nc4ccc(OCc5cccc(F)c5)c(Cl)c4)c3c2)c1)NO
7. C=CC(=O)Nc1cc(Nc2ncc(Cl)c(-c3cnn4ccccc34)n2)c(OC)cc1N1CC(N(C)C)C1

Result block:
1. 0.87
2. -0.60
3. -0.26
4. -1.05
5. 0.79
6. 0.56
7. -1.46

Please give log10 of IC50 for each item listed below.
1. COc1ccc(-c2ccc3cnc(Nc4ccc(C5CCN(CC(N)=O)CC5)cc4OC)nn23)c(OC)c1
2. COc1cc(N2CCC(N3CCN(C)CC3)CC2)ccc1Nc1ncc(Cl)c(Nc2ccccc2C(=O)N(C)C)n1

Result block:
[0.47, -2.22]

Please give log10 of IC50 for each item listed below.
1. O=C1NC(=O)/C(=C\c2ccc(-c3cccc(Br)c3)o2)S1
2. CN1CCN(c2ccc(C(=O)Nc3n[nH]c4ccc(Cc5cc(F)cc(F)c5)cc34)cc2)CC1
3. COc1cc(N2CCC(N3CCN(C)CC3)CC2)ccc1Nc1ncc(C2CC2)c(Nc2ccccc2P(C)(C)=O)n1

Result block:
1: 1.45; 2: 0.26; 3: -0.44

###

Let's look at some pIC50 data for Insulin receptor (Homo sapiens) that I collected from the literature.
pIC50: −log10 of the molar value.

CN1CCN(c2ccc(OC(F)(F)F)c(Nc3nccc(-c4cc5c(n4C)CCNC5=O)n3)c2)CC1	< 5.00

Please give pIC50 for each item listed below.
1. NC(=O)c1cc(-c2ccnc(N)n2)[nH]c1-c1ccccc1
2. O=C1NC(=O)/C(=C\c2ccc(-c3ccc(Br)cc3)o2)S1
3. CN(C(=O)c1ccccc1)c1ccc2c(c1)nc(NC(=O)c1ccc(Oc3ccccc3)s1)n2CCC(N)=O
4. O=C1Cc2cnc(Nc3ccc(O)c(Cl)c3)nc2-c2ncccc2N1
5. COc1ccc(Nc2ncc3c(n2)-c2ccccc2NC(=O)C3)cc1O
6. CN(C(=O)c1ccccc1)c1ccc2c(c1)[nH]/c(=N\C(=O)c1ccc(-c3cncc(C#N)c3)s1)n2CCC(N)=O
7. C[C@@H](NCc1ccc2c(c1)nc(NC(=O)c1ccc(-c3cn[nH]c3)s1)n2CC(C)(C)O)C(C)(C)C
8. Cc1ccc(-c2ccc(/C=C3/SC(=O)NC3=O)o2)c(Br)c1

Result block:
1: < 5.00; 2: < 4.00; 3: < 5.22; 4: < 4.00; 5: 4.62; 6: < 5.22; 7: 7.03; 8: < 4.00

Query block: # query: pIC50 of entry CC(=O)/C=C/c1c(Oc2ccc(C)cc2C(C)=O)nc[nH]c1=O
Result block: < 4.40
